protocol conditions: formulation CaCl2 99.9 mg | PG ad 1000 mg; 14 days
assay endpoint: Purity at 40° C. as relative main peak area [%] by RP-HPLC (%)
// return numeric value only (unit: %, not printed)

IN: GET /values?readout=Purity at 40° C. as relative main peak area [%] by RP-HPLC&item= `O=NN(CCCl)C(=O)NCCCl`
OUT: 2.0

IN: // query Purity at 40° C. as relative main peak area [%] by RP-HPLC value for entry `Nc1ncn([C@@H]2O[C@H](CO)[C@@H](O)[C@H]2O)c(=O)n1`
OUT: 97.7

IN: Which measured Purity at 40° C. as relative main peak area [%] by RP-HPLC value corresponds to `N[C@@H](Cc1ccc(N(CCCl)CCCl)cc1)C(=O)O` ?
OUT: 97.4

IN: What does the record list as Purity at 40° C. as relative main peak area [%] by RP-HPLC for `Cn1c(CCCC(=O)O)nc2cc(N(CCCl)CCCl)ccc21` ?
OUT: 98.4

* * *

protocol conditions: formulation CaCl2 99.9 mg | PG ad 1000 mg; 7 days
Assignment: determine reported Purity at 40° C. as relative main peak area [%] by RP-HPLC for the given molecules.
State just the number; it will be interpreted in %.

IN: Return reported Purity at 40° C. as relative main peak area [%] by RP-HPLC; argument: `Nc1ncn([C@@H]2O[C@H](CO)[C@@H](O)[C@H]2O)c(=O)n1`
OUT: 99.8

IN: Requested field: Purity at 40° C. as relative main peak area [%] by RP-HPLC. Item: `N[C@@H](Cc1ccc(N(CCCl)CCCl)cc1)C(=O)O`
OUT: 98.1

IN: Return reported Purity at 40° C. as relative main peak area [%] by RP-HPLC; argument: `O=NN(CCCl)C(=O)NCCCl`
OUT: 2.1

IN: Bench note: what Purity at 40° C. as relative main peak area [%] by RP-HPLC did `Cn1c(CCCC(=O)O)nc2cc(N(CCCl)CCCl)ccc21` show?
OUT: 98.9

* * *

protocol conditions: formulation CaCl2 99.9 mg | PG ad 1000 mg; 0 days
For each record, write down the corresponding Purity at 40° C. as relative main peak area [%] by RP-HPLC.
State the answer as a number, implicitly in %.

IN: Dear colleague, I am looking for the recorded Purity at 40° C. as relative main peak area [%] by RP-HPLC of the following compound: Nc1ncn([C@@H]2O[C@H](CO)[C@@H](O)[C@H]2O)c(=O)n1 [Azacitidine]
OUT: 100

IN: Which Purity at 40° C. as relative main peak area [%] by RP-HPLC is reported for this compound? N[C@@H](Cc1ccc(N(CCCl)CCCl)cc1)C(=O)O [Melphalan]
OUT: 99.8

IN: Tell me the measured Purity at 40° C. as relative main peak area [%] by RP-HPLC of Cn1c(CCCC(=O)O)nc2cc(N(CCCl)CCCl)ccc21 [Bendamustine] , please.
OUT: 99.7

IN: What measured Purity at 40° C. as relative main peak area [%] by RP-HPLC goes with O=NN(CCCl)C(=O)NCCCl [Carmustine] ?
OUT: 95.8
